Target: SARS-CoV-2 full length Spike protein, wild type (SARS-CoV-2, UniProt P0DTC2 14-1208)
endpoint_name: bead binding signal (fold over isotype)

1) antibody 320 (antibody, V domains shown) VH: QVQLVQSGAEVKKPGASVKVSCKASGYTFTSYGISWVRQAPGQGLEWMGWISAYNGNTNYAQKLQGRVTMTTDTSTRTAYMELRSLRSDDTAVYYCARVGCYYDSSGYSCAENFQHWGQGTLVTVSS VL: QSVLTQPPSVSGAPGQRVTISCTGSSSNIGAGYDVHWYQQLPGTAPKLLIYGNSNRPSGVPDRFSGSKSGTSASLAITGLQAEDEADYYCQSYDSSLSALFGGGTKLTVL	1200
2) antibody 333 (antibody, V domains shown) VH: QVHLVESGGGVVLPGRSLRLSCSASQFIFSNYDMHWVRQSPGMGLEWVAGISSDGSDKYYIDSVRGRFTISRDNAKNTLFLQMNSLTTEDTAVYSCAKGGGKFGQYWGRGTLVTVSS VL: AIQMTQSPSSLSASVGDRVTITCRASQVIRNDLAWFQQKPGEAPNLLVYSASNLQSGVPSRFSGSGSGTDFTLTISSLQPEDFATYYCLQDYSYPYTFGQGTKLDMK	1.08
3) antibody 316 (antibody, V domains shown) VH: QVHLVESGGGVVQPGRSLRLSCAASGFTLTAYAMHWVRQAPGKRLEWVALISYDGSVKKYADSVKGRITVSGDTSTNTLHLQMNSLRADDTAVYYCVRGGVSGPNSFDLWGQGTMVTVSS VL: DVVMTQSPLSLPVTLGQPASMSCRSSQSLEYSDGNTYVNWFHQRPGQSPRRLIYKVSYRDSGVPDRFSGSGSGTDFTLQISRVEAEDVGIYYCMQGTHWPVTFGQGTKVEIK	442
4) antibody 326 (antibody, V domains shown) VH: QITLKESGPTLVKPTQTLTLTCTFSGFSLNTSGVGVGWIRQPPGKALEWLSLIFWNDDKRYSPSLRSRLTITKDTSKNQVVLTMTNMDPVDTATYFCAHRNSGWSLKFDSWGQGSLVTVSA VL: DIQMTQSPSSVSASVGDRVTITCRARQGISSWLVWYQQKPGKAPKLLIFGASSLQSGVPSRFNASGTGTEFTLTISSLQPEDFATYYCQQADSFPITFGQGTRLEIK	193
5) antibody 345 (antibody, V domains shown) VH: QVQLQESGPGLVKPSQTLSLTCTVSGGSISSGDYYWSWIRQPPGKGLEWIGYIYYSGSTYYNPSLKSRVTISVDTSKNQFSLKLSSVTAADTAVYYCARVGMVDNWNFEGNWFDPWGQGTLVTVSS VL: QSALTQPRSVSGSPGQSVTISCTGTSSDVGGYNYVSWYQQHPGKAPKLMIYDVSKRPSGVPDRFSGSKSGNTASLTISGLQAEDEADYYCCSYAGSVVFGGGTKLTVL	562
